test system: HOP-92 NSCLC; assay: NCI-60 one-dose screen, 48 h (100 = growth as untreated, 0 = no growth, -100 = all killed); conditions: 10 µM unless noted
About 83,000 compounds went through this panel and 20% of them were active in at least one assay; those are over-represented in the sample as a whole.
Mark each entry yes if its growth sits below 80%, and no for all others.

CN(C)c1ccc(CNCCO)cc1 : yes
CC1(C)N=C(N)N=C(N)N1c1cc(Cl)ccc1Cl : no
COc1ccc(CNc2ccc3nc(NC(=O)CN4CCCCCC4)sc3c2)cc1 : yes
Nc1cc(-c2ccc(Cl)cc2)nn1-c1nnc(/C=C/c2ccco2)c(=O)[nH]1 : yes
Nc1c(Br)cc2c(c1Br)Cc1cc([N+](=O)[O-])ccc1-2 : no

Q. Below 80% on growth? Entry C=C1SC(=Nc2ccccc2Cl)N(C(=O)c2sc3ccccc3c2Cl)C1(C)C
A. yes

---

tested on: KM12 colon; test: NCI-60 one-dose screen, 48 h (100 = growth as untreated, 0 = no growth, -100 = all killed); conditions: 10 µM unless noted
Compounds without any hit were thinned out: in the full panel of roughly 83,000, 20% have a hit.
VALUE_KIND: growth (%)
Enter your answer as a number in %; do not include the unit.

Consider the following illustrative entries.
O=C(/C=C/c1cn(-c2ccccc2)nc1-c1ccccc1)CCC(=O)NO : 96.9
O=C1CCCC1[n+]1ccccc1 (centres undefined) : 97.6
CC(C)(Sc1cc(C(C)(C)C)c(O)c(C(C)(C)C)c1)Sc1cc(C(C)(C)C)c(OC(=O)CCC(=O)O)c(C(C)(C)C)c1 : 33.3
Cc1cccc(N=Nc2cccc(C)c2)c1 : 110
C#Cc1cccc(Nc2ncnc3cc(NC(=O)CCl)ccc23)c1 : -74.3
Cn1c2ccccc2c2c3c(c4c5cc(Br)ccc5n(C)c4c21)C(=O)N(O)C3=O : 34.1
C/C(=N\Nc1ccccc1)c1ccc(NC2=CC(=O)c3ccccc3C2=O)cc1 : 43.7
CCOC(=O)NCCCC(=O)NCCc1ccccc1 : 96.6

// switching to the query compound
Q. Hello, please tell me recorded growth for this one: CCn1cc(C(=O)O)c(=O)c2cc(F)c(N3CCN(CC(=O)Nc4ccccc4)C(C)C3)c(F)c21 (centres undefined)
A. 99.9

---

test system: SK-MEL-28 melanoma; assay: NCI-60 one-dose screen, 48 h; conditions: 10 µM unless noted
This is part of a sample that, as a whole, favours compounds with a hit. Of some 83,000 tested, about 20% had one in any assay. The source made the active and inactive calls. Rule for the calls: active = growth percent below 10; inactive = the rest.
# valid calls are TRUE (active), FALSE (inactive); nothing else

Past entries and their recorded results:
Cc1cn(C)cn1 : FALSE
O=C(/C=C/c1cccc(Oc2ccccc2)c1)c1ccc(Nc2nc(Nc3ccc(F)cc3)nc(Nc3ccc(Cl)cc3)n2)cc1 : FALSE
CN(C)CCCC1(c2ccc(F)cc2)OCc2cc(-c3csc4ccccc34)ccc21 (stereo not given) : TRUE
COc1ccc(OC)c(Nc2nnc(-c3cc(OC)c(OC)c(OC)c3)o2)c1 : FALSE

Shift focus to the following entry.
Q. Name the outcome recorded for Clc1ccc(-c2cc(-c3ccccc3)nc(N3CCN(CCCNc4ccnc5cc(Cl)ccc45)CC3)n2)cc1 in the assay.
A. TRUE

---

tested on: MOLT-4 leukemia; test: NCI-60 one-dose screen, 48 h; conditions: 10 µM unless noted
About 83,000 compounds went through this panel and 20% of them were active in at least one assay; those are over-represented in the sample as a whole. The source made the active and inactive calls. The calls were made as follows: active = growth percent below 10; inactive = the rest.
# valid calls are active, inactive; nothing else

Past entries and their recorded results:
CC1=Nc2cnc(Nc3ccc(N4CCCCC4)cc3)nc2Nc2ccccc21 : inactive
Cc1c2cnccc2c(C)c2c1c1cc(CO)ccc1n2C : active

Q. Name the outcome recorded for O=C1CCC(C(=O)N/N=C/c2cc(F)ccc2F)N1 (stereo unspecified) in the assay.
A. inactive

Q. Name the outcome recorded for C[C@@H]1NC(=O)[C@H](Cc2ccccc2)N(Cc2cccnc2)C1=O in the assay.
A. inactive

Q. Name the outcome recorded for O=C(NN1C(=O)CSC1c1cccc([N+](=O)[O-])c1)c1ccc(NC(=O)c2ccccn2)cc1 (stereo unspecified) in the assay.
A. inactive

Q. Name the outcome recorded for OC1(c2ccccc2)c2ccccc2N(c2ccccc2)c2ccc(Cl)cc21 (stereo unspecified) in the assay.
A. active
